- Target or system: RRE subdomain IIB RNA hairpin IIBh
- Assay procedure: Fluorescence intensity binding to fluorescein-labelled IIBh hairpin
- Design: species or system HIV-1
- Experimental context: low ionic strength; 10 mM sodium phosphate pH 6.6, 0.1 mM EDTA; two-site model; read-out: Kd,1 first-site equilibrium dissociation constant (IIBh), Table S1
- Description: We next determined whether the terphenyl molecules blocked the interaction between Rev34–50 and subdomain IIB by binding to the RNA and, if so, whether they recognized subdomain IIB in a manner similar to the Rev34–50 α-helix. We first evaluated subdomain IIB association by measuring changes in the fluorescence intensity of a IIBh RNA hairpin construct containing a fluorescein probe attached to unpaired loop IIB residue U23 (Fig. 1D)[21],[22]. […]
Quantity: log10 Kd (log10 of the value in µM)
Parameter value (number): base-10 log of Kd in µM.

Examples from the recorded data:
# Compound string, Quantity, Number
rows = [
    ("CCc1cc(-c2cc(CCCN)c(OC)cc2CCCN)c(CC)cc1-c1cc(CCCN)c(OC)cc1CCCN", "log10 Kd", -0.96),
    ("COc1cc(CCCN)c(-c2cc(C)c(-c3cc(CCCN)c(OC)cc3CCCN)cc2C)cc1CCCN", "log10 Kd", -0.17),
    ("CCOc1cc(CCN)c(-c2cc(C)c(-c3cc(CCN)c(OCC)cc3CCN)cc2C)cc1CCN", "log10 Kd", -0.72),
    ("COc1ccc(-c2cc(C)c(-c3cc(CCN)ccc3CCN)cc2C)cc1CCN", "log10 Kd", 0.74),
    ("Cc1cc(-c2cc(CCN)ccc2CCN)c(C)cc1-c1ccccc1CCN", "log10 Kd", 0.57),
]

Pending compound:
## Input # log10 Kd lookup, item COc1ccc(-c2cc(C)c(-c3cc(CCN)c(OC)cc3CCN)cc2C)cc1CCN
## Output 0.95

* * *

- Target or system: RRE subdomain IIB RNA hairpin IIBh
- Assay procedure: Fluorescence intensity binding to fluorescein-labelled IIBh hairpin
- Design: species or system HIV-1
- Experimental context: higher ionic strength; 10 mM HEPES pH 7.5, 200 mM KCl, 2 mM MgCl2; read-out: Kd (IIBh), first-site Kd1, Table S2
The following compounds are listed with their measured Kd values.
The figure you give is taken to be in µM; do not add the unit.

# Compound string, Number
data = [
    ("COc1cc(CCN)c(-c2cc(C)c(-c3cc(CCN)c(OC)cc3CCN)cc2C)cc1CCN", 4.4),
]

Pending compound:
## Input For RRE subdomain IIB RNA hairpin IIBh, provide Kd of Cc1cc(-c2cc(CCN)ccc2CCN)c(C)cc1-c1cc(CCN)ccc1CCN please.
## Output 7.6

* * *

- Target or system: TARh hairpin containing the HIV-1 Tat-binding UCU bulge
- Assay procedure: Fluorescence intensity binding to control TARh hairpin
- Experimental context: 10 mM sodium phosphate pH 6.6, 0.1 mM EDTA; two-site model; read-out: Kd (TARh), second-site Kd2 (in brackets)
Quantity: Kd

## Input # Kd lookup, item Cc1cc(-c2cc(CCN)ccc2CCN)c(C)cc1-c1cc(CCN)ccc1CCN
## Output 22 µM

* * *

- Tested on: RRE subdomain IIB RNA hairpin IIBh
- Assay procedure: Fluorescence intensity binding to fluorescein-labelled IIBh hairpin
- Parameters: species or system HIV-1
- Experimental context: low ionic strength, 10 mM sodium phosphate pH 6.6; uses Kd1
Quantity: IIB-tRNA spec., Kd(IIBh)/Kd(IIBh+tRNA)
No unit in the answer, please; the number alone is enough.

# Compound string, IIB-tRNA spec., Kd(IIBh)/Kd(IIBh+tRNA)
records = [
    ("COc1cc(CCN)c(-c2cc(C)c(-c3cc(CCN)c(OC)cc3CCN)cc2C)cc1CCN", 0.035),
    ("Cc1cc(-c2cc(CCN)ccc2CCN)c(C)cc1-c1cc(CCN)ccc1CCN", 0.11),
    ("CCc1cc(-c2cc(CCN)c(OC)cc2CCN)c(CC)cc1-c1cc(CCN)c(OC)cc1CCN", 0.059),
]

Pending molecule:
## Input # IIB-tRNA spec., Kd(IIBh)/Kd(IIBh+tRNA) lookup, item Cc1cc(-c2cc(CCN)ccc2CCN)c(C)cc1-c1cccc(CCN)c1
## Output 1.3
